measured.on: human bradykinin receptor 1 (B1R) (Homo sapiens, UniProt P46663)
Construct: expressed in transfected cells; host or cells: CHO K1 cells
Sequence (P46663 1-353): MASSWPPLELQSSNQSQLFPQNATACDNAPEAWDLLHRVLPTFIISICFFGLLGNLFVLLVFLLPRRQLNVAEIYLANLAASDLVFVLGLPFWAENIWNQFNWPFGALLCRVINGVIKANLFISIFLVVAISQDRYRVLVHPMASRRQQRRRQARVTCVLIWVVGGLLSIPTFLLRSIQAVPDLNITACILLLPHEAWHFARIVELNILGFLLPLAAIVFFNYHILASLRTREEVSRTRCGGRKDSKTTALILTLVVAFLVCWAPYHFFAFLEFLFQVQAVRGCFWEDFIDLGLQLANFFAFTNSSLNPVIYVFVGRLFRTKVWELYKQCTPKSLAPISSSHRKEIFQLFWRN
test: Functional study on the bradykinin receptor 1 (B1R), human: FLIPR Ca2+ influx assay
Assay type: cell-based
test.settings: test substance 10 μM; CHO K1 cells transfected with human B1R; Lys-Des-Arg9-bradykinin at EC80; Ca2+ influx (Fluo-4, FLIPR); read-out: B1R antagonism, human [10 μM] % inhibition
Given measured inhibition at 10 µM, output true (1) if it is greater than or equal to 50% and false (0) if not.

>  <compound>
O=C(CC1C(=O)Nc2ccccc2N1S(=O)(=O)c1ccc(Cl)c(Cl)c1)NCC1CCC(C(CCc2ccccc2)N2CCOCC2)CC1 (stereo not drawn)

>  <label.value>
true (1)

$$$$
>  <compound>
O=C(CC1C(=O)NCCN1S(=O)(=O)c1ccc(Cl)cc1Cl)NCC1CCC(C(c2ccccc2)N2CCOCC2)CC1 (stereo not drawn)

>  <label.value>
true (1)

$$$$
>  <compound>
COc1ccc(S(=O)(=O)N2CCc3ccccc3C2CC(=O)NCC2CCC(C(c3cccs3)N(C)C)CC2)cc1 (stereo not drawn)

>  <label.value>
true (1)

$$$$
>  <compound>
O=C(CC1CCCCN1S(=O)(=O)c1ccc(Cl)c(Cl)c1)NC1CCC(C(c2ccccc2)N2CCOCC2)CC1 (stereo not drawn)

>  <label.value>
false (0)

$$$$
>  <compound>
CN(C)C(c1ccccc1)C1CCC(CNC(=O)C2Cc3ccccc3N2S(=O)(=O)c2ccc(Cl)c(Cl)c2)CC1 (stereo not drawn)

>  <label.value>
false (0)

$$$$
>  <compound>
O=C(CC1C(=O)Nc2ccccc2N1S(=O)(=O)c1ccc(Cl)c(Cl)c1)NC1CCC(C(CCc2ccccc2)N2CCOCC2)CC1 (stereo not drawn)

>  <label.value>
true (1)

$$$$
>  <compound>
O=C(CC1C(=O)NCCN1S(=O)(=O)c1ccc(Cl)cc1Cl)NC1CCC(C(CCc2ccccc2)N2CCOCC2)CC1 (stereo not drawn)

>  <label.value>
true (1)

$$$$
>  <compound>
CN1CCN(C(c2ccccc2)C2CCC(NC(=O)CC3CCCN3S(=O)(=O)c3ccc(Cl)c(Cl)c3)CC2)CC1 (stereo not drawn)

>  <label.value>
true (1)

$$$$
>  <compound>
O=C(CC1CCCCN1S(=O)(=O)c1ccc(Cl)c(Cl)c1)NCC1CCC(C(c2ccccc2)N2CCOCC2)CC1 (stereo not drawn)

>  <label.value>
false (0)

$$$$
